assay: Pharmacokinetics of sublingual tofacitinib, plasma LC MS/MS; format: in vivo, human; details: human, plasma, 5 mg, sublingual, Week 28 (FIG. 5b); read-out: Estimated elimination half-life (plasma concentration halving from 29.14 ng/ml to 14.6 ng/ml) (converted)
readout: half-life

## Input For C[C@@H]1CCN(C(=O)CC#N)C[C@@H]1N(C)c1ncnc2[nH]ccc12 [tofacitinib] , what is its reported half-life?
## Output ~11 h

---

assay: Pharmacokinetics of sublingual tofacitinib, plasma LC MS/MS; assay type: in vivo, human; details: human, plasma, other: sublingual, 5 mg, Week 28; no nocte dose
readout: concentration at 24 h (ng/mL)
Express the result in ng/mL but write the number alone.

## Input For C[C@@H]1CCN(C(=O)CC#N)C[C@@H]1N(C)c1ncnc2[nH]ccc12 , what is its reported concentration at 24 h?
## Output 0.28
